# Test system: Liver
# runDescription: Metabolic stability in rat liver microsomes assessed as metabolic rate at 1 uM preincubated for 5 mins followed by addition of NADPH measured after 3 to 30 mins by LC-MS/MS analysis
# Assay type: ADME, microsome
measuredParameter: log10(Drug metabolism) (log10 of the value in nmol/min/mg)
Note: values are log10 of Drug metabolism expressed in nmol/min/mg.

Worked cases, answers included:
| molecule | recordedNumber |
| --- | --- |
| COc1ccc(N2CCOCC2)c2sc(NC(=O)C(C)(C)Oc3ccc(F)c(F)c3)nc12 | -1.05 |
| COc1cnc(N2CCOCC2)c2sc(NC(=O)C(C)(C)Oc3c(F)cccc3F)nc12 | -1.30 |
| COc1ccc(N2CCOCC2)c2sc(NC(=O)C(C)(C)Oc3ccc(F)cc3F)nc12 | -1.15 |
| COc1ccc(N2CCOCC2)c2sc(NC(=O)C(C)(C)Oc3cccc(F)c3)nc12 | -1.00 |

Observed log10(Drug metabolism) on Liver for `COc1ccc(N2CCOCC2)c2sc(NC(=O)C(C)(C)Oc3ccc(C)cc3)nc12` , please.
-1.00

Observed log10(Drug metabolism) on Liver for `COc1ccc(N2CCOCC2)c2sc(NC(=O)C(C)(C)Oc3ccc4c(c3)OCO4)nc12` , please.
-1.30

Observed log10(Drug metabolism) on Liver for `COc1ccc(N2CCOCC2)c2sc(NC(=O)C(C)(C)Oc3c(F)cccc3F)nc12` , please.
-1.05

Observed log10(Drug metabolism) on Liver for `COc1ccc(N2CCOCC2)c2sc(NC(=O)C(C)(C)Oc3ccc(F)cc3)nc12` , please.
-1.40

Observed log10(Drug metabolism) on Liver for `COc1ccc(OC(C)(C)C(=O)Nc2nc3c(OC)ccc(N4CCOCC4)c3s2)cc1OC` , please.
-0.96

Observed log10(Drug metabolism) on Liver for `COc1cnc(N2CCOCC2)c2sc(NC(=O)C(C)(C)Oc3ccc(F)c(F)c3)nc12` , please.
-1.52

Observed log10(Drug metabolism) on Liver for CCN(CC)C1CCC(C)(C(=O)Nc2nc3c(OC)ccc(N4CCOCC4)c3s2)CC1 (stereo unspecified) , please.
-2.00

Observed log10(Drug metabolism) on Liver for `COCCOc1cccc(OC(C)(C)C(=O)Nc2nc3c(OC)cnc(N4CCOCC4)c3s2)c1` , please.
-1.30
